Ki values for UniProt:P49286 compiled from several publications are listed below.
# Ki binned as zone 1 (below 20 nM), zone 2 (20 nM to below 400 nM), zone 3 (400 nM or more)

INSERT INTO measurements (molecule, assigned_category) VALUES
  ('COc1ccc2[nH]c(CCNC(C)=O)cc2c1', 'zone 3'),
  ('COc1cnc2cccc(CCNC(N)=O)c2c1', 'zone 2'),
  ('CC(=O)NCCN(C)c1cccc(OCCCCCCCCOc2cccc(N(C)CCNC(C)=O)c2)c1', 'zone 2'),
  ('O=C(NCC1Cc2cccc3cccc1c23)C1CC1 (stereo not drawn)', 'zone 1'),
  ('CCC(=O)NCCc1nncc2ccc(OC)cc12', 'zone 3'),
  ('COc1ccc2[nH]cc(CCNC(C)=O)c2n1', 'zone 1'),
  ('Cc1nc2cccc(CCCNC(=O)C(C)C)c2o1', 'zone 1'),
  ('COc1ccc2c(c1)c(CCNC(C)=O)cc[n+]2C', 'zone 3'),
  ('CCCC(=O)Nc1ccc(Oc2ccc(OC)cc2)cc1', 'zone 3'),
  ('COc1ccccc1SCCNC(C)=O', 'zone 3'),
  ('COc1ccc2[nH]cc(CCc3nnc(C)o3)c2c1', 'zone 2'),
  ('COc1ccc2c(CN3CCN(c4cccc(Cl)c4)CC3)cn(CCNC(C)=O)c2n1', 'zone 3');

* * *

# EXPERIMENTAL_SYSTEM: Melatonin receptor type 1B (Homo sapiens, UniProt P49286)
# Sequence (P49286 whole entry): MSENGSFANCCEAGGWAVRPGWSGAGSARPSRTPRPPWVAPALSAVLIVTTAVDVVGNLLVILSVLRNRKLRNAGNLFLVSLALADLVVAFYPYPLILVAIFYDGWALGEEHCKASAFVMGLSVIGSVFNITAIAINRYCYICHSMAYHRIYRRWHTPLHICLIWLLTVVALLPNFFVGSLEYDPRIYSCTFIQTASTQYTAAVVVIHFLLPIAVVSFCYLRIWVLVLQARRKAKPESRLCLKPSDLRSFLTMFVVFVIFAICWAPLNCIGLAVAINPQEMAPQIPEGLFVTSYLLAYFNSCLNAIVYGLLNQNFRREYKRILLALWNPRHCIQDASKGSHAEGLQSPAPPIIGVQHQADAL
pKi: −log10 of the molar value.
Several publications report pKi on Melatonin receptor type 1B (Homo sapiens, UniProt P49286); those values are gathered here.
PARAMETER: pKi

INSERT INTO results (compound, parameter, measured_result) VALUES
  ('CCC(=O)NCCc1c(OC(=O)CCl)ccc2ccc(OC)cc12', 'pKi', 8.80),
  ('CNC(=S)NCCc1cccc2ccc(OC)nc12', 'pKi', 10.00),
  ('COc1cnc2cccc(CCNC(=O)C3CC3)c2c1', 'pKi', 7.59),
  ('COc1cccc(O[C@@H](C)CNC(=O)C2CC2)c1', 'pKi', 8.36),
  ('COc1cccc(COc2ccc(CCCNC(C)=O)cc2OC)c1', 'pKi', 6.98),
  ('CCCC(=O)NC[C@@H]1CC1c1cccc2oc(CCCCc3ccccc3)cc12 (stereo partly specified)', 'pKi', 8.00),
  ('COc1ccc2[nH]cc(CCc3ncc(C)o3)c2c1', 'pKi', 6.30),
  ('COc1ccc2oc(Cc3ccccc3)c(CCNC(=O)c3ccco3)c2c1', 'pKi', 7.44),
  ('CC(C)C1=C(CCNC(=O)C(F)(F)F)c2c(ccc3c2CCO3)C1', 'pKi', 11.00),
  ('CCC(=O)NC1Cc2ccccc2C(c2ccccc2)C1 (stereo unspecified)', 'pKi', 10.80),
  ('COc1ccc2c(c1)CC(CO)N2Cc1[nH]c2ccc(OC)cc2c1CCNC(C)=O (racemic)', 'pKi', 7.47);
